- ASSAYED_TARGET: JAK3 (Homo sapiens)
- Sequence (P52333 1-1124): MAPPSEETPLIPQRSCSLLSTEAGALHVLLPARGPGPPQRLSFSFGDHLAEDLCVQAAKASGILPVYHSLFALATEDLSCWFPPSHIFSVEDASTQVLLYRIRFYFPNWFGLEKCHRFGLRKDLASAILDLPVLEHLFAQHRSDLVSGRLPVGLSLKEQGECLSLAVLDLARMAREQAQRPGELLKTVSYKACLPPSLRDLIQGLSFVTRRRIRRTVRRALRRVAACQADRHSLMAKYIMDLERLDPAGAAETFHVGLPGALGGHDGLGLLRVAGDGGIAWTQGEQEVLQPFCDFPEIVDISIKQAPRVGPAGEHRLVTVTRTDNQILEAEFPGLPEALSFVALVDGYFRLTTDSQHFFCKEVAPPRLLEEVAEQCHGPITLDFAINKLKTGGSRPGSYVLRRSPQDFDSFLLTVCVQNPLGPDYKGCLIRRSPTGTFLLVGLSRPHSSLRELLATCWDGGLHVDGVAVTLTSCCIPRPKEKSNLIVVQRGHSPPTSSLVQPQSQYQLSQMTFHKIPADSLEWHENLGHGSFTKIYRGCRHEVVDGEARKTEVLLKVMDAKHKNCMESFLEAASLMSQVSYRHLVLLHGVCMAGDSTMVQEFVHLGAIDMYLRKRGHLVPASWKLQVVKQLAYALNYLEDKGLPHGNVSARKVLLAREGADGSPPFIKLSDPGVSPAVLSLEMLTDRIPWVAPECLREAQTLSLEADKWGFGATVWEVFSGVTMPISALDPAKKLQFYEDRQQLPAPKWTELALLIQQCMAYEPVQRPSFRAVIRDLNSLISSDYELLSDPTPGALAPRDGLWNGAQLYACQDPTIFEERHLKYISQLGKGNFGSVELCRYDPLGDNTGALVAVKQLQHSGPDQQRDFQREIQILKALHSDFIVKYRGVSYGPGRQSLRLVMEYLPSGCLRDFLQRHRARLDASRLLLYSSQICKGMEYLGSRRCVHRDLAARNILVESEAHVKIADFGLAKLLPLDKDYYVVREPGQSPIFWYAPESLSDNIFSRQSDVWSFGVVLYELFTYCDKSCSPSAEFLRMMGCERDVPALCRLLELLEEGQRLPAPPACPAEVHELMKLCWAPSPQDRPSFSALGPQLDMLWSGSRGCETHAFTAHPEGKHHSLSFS
Each entry below carries its reported Kd.
ASSAY_ENDPOINT: Kd

[[record]]
molecule = "Cc1cc(Nc2nc(C(F)(F)c3ccc(F)cc3)nc3cc(-c4cnn(C)c4)ccc23)n[nH]1 [Example 1]"
result = "≤ 10 nM"

[[record]]
molecule = "Cc1cc(Nc2nc(C(F)(F)c3ccc(F)cc3)nc3cc(-c4ccccc4O)ccc23)n[nH]1 [Example 5]"
result = "10 to 100 nM"

[[record]]
molecule = "Cc1cc(Nc2nc(C(F)(F)c3ccc(F)cc3)nc3cc(C4(O)COC4)ccc23)n[nH]1 [Example 3]"
result = "≤ 10 nM"

[[record]]
molecule = "Cc1cc(Nc2nc(C(F)(F)c3ccc(F)cc3)nc3cc(N4C[C@H](O)CC4=O)ccc23)n[nH]1 [Example 7]"
result = "≤ 10 nM"


Data provenance is patent US20130225578A1.
